# System: wild mustard
# METHOD_NOTES: Test Example 1, foliar treatment, herbicidal activity
# Type: in vivo, Brassica kaber
# PROTOCOL_CONDITIONS: 5 g/are, 3 weeks
ASSAY_ENDPOINT: Herbicidal activity, Wild mustard

Q: Look up Herbicidal activity, Wild mustard: COc1cc(N2C(=O)C3=C(CCCC3)C2=O)c(F)cc1Cl
A: 5 (0)

Q: Need Herbicidal activity, Wild mustard, item CCOc1cc(N2C(=O)C3=C(CCCC3)C2=O)c(F)cc1Br
A: 5 (0)

Q: Any idea what Herbicidal activity, Wild mustard was measured for CCCOc1cc(N2C(=O)C3=C(CCCC3)C2=O)c(F)cc1Br ?
A: 5 (0)

Q: // Herbicidal activity, Wild mustard lookup, key: CCCOc1cc(N2C(=O)C3=C(CCCC3)C2=O)c(F)cc1Cl
A: 5 (0)

Q: Recorded Herbicidal activity, Wild mustard for CCCCOc1cc(N2C(=O)C3=C(CCCC3)C2=O)c(F)cc1Cl , please?
A: 5 (0)

Q: Quick one: Herbicidal activity, Wild mustard of CCC(C)Oc1cc(N2C(=O)C3=C(CCCC3)C2=O)c(F)cc1Br (stereo not drawn) ?
A: 5 (0)

Q: What value of measured Herbicidal activity, Wild mustard is listed for CC(C)Oc1cc(N2C(=O)C3=C(CCCC3)C2=O)c(Cl)cc1Cl [B, reference compound] ?
A: 3 (11-20)

Q: Given the entry COc1cc(N2C(=O)C3=C(CCCC3)C2=O)c(F)cc1Br , report its measured Herbicidal activity, Wild mustard.
A: 5 (0)

Q: Value lookup for Herbicidal activity, Wild mustard; key = O=C1C2=C(CCCC2)C(=O)N1c1ccc(Cl)cc1F [A, reference compound]
A: 5 (0)

----------
# Test system: corn
# METHOD_NOTES: Test Example 1, foliar treatment, phytotoxicity to corn; further: ranges in brackets are in %
# Assay type: in vivo
# PROTOCOL_CONDITIONS: 1.25 g/are, 3 weeks
ASSAY_ENDPOINT: Phytotoxicity, Corn

Q: I have this molecule here, O=C1C2=C(CCCC2)C(=O)N1c1ccc(Cl)cc1F [A, reference compound] , and I need its recorded Phytotoxicity, Corn.
A: 1 (90-99)

Q: So what's the measured Phytotoxicity, Corn for this one? CC(C)COc1cc(N2C(=O)C3=C(CCCC3)C2=O)c(F)cc1Cl
A: 0 (100)

Q: Recorded Phytotoxicity, Corn for CCCCOc1cc(N2C(=O)C3=C(CCCC3)C2=O)c(F)cc1Cl , please?
A: 0 (100)

Q: Name the recorded Phytotoxicity, Corn for COc1cc(N2C(=O)C3=C(CCCC3)C2=O)c(F)cc1Br .
A: 1 (90-99)

Q: Quick one: Phytotoxicity, Corn of CCC(C)Oc1cc(N2C(=O)C3=C(CCCC3)C2=O)c(F)cc1Cl (stereo not shown) ?
A: 0 (100)

Q: Fill in the blank: the reported Phytotoxicity, Corn of CCOc1cc(N2C(=O)C3=C(CCCC3)C2=O)c(F)cc1Br is ____.
A: 0 (100)

Q: Need Phytotoxicity, Corn, item COc1cc(N2C(=O)C3=C(CCCC3)C2=O)c(F)cc1Cl
A: 0 (100)

----------
# System: wild mustard
# METHOD_NOTES: Test Example 1, foliar treatment, herbicidal activity
# Assay type: in vivo, Brassica kaber
# PROTOCOL_CONDITIONS: 1.25 g/are, 3 weeks
ASSAY_ENDPOINT: Herbicidal activity, Wild mustard

Q: Bench note: what Herbicidal activity, Wild mustard did CC(C)Oc1cc(N2C(=O)C3=C(CCCC3)C2=O)c(Cl)cc1Cl [B, reference compound] show?
A: 2 (21-40)

Q: Param item = CCCOc1cc(N2C(=O)C3=C(CCCC3)C2=O)c(F)cc1Br ; retrieve measured Herbicidal activity, Wild mustard.
A: 5 (0)

Q: Given CCOc1cc(N2C(=O)C3=C(CCCC3)C2=O)c(F)cc1Cl , state its recorded Herbicidal activity, Wild mustard.
A: 5 (0)

Q: // query Herbicidal activity, Wild mustard value for entry CCC(C)Oc1cc(N2C(=O)C3=C(CCCC3)C2=O)c(F)cc1Br (stereo not drawn)
A: 5 (0)

Q: Could you share which Herbicidal activity, Wild mustard value was measured for COc1cc(N2C(=O)C3=C(CCCC3)C2=O)c(F)cc1Br ?
A: 4 (1-10)

Q: I would be grateful if you could share the reported Herbicidal activity, Wild mustard for O=C1C2=C(CCCC2)C(=O)N1c1ccc(Cl)cc1F [A, reference compound] .
A: 3 (11-20)

Q: Consider the compound CCC(C)Oc1cc(N2C(=O)C3=C(CCCC3)C2=O)c(F)cc1Cl (stereo not drawn) and give its measured Herbicidal activity, Wild mustard.
A: 4 (1-10)

Q: # input compound: CC(C)COc1cc(N2C(=O)C3=C(CCCC3)C2=O)c(F)cc1Cl ; wanted: its Herbicidal activity, Wild mustard
A: 3 (11-20)

Q: Need Herbicidal activity, Wild mustard of CCOc1cc(N2C(=O)C3=C(CCCC3)C2=O)c(F)cc1Br , thanks.
A: 5 (0)
